- ASSAYED_SYSTEM: EGLN1
- ASSAY_INFO: cell-based or functional assay
Where no end group is shown, it is not given here.
Please respond with y when measured Activity (%)* is strictly beneath 40%, and with n in all other cases.

>>> label_value("DTDLDTEAFAPYIPADDDFQ (not fully specified; printed as DTDLDTEAFApYIPADDDFQ) [DTDLDTEAFApYIPADDDFQ]")
"y"

From here, focus on the item given below.
Is it true that Activity (%)* reported for DTDLDIEAVAPYIPADDDFQ [DTDLDIEAVApYIPADDDFQ] is less than 40%? y

Origin of the recorded values: patent US20080113383A1
